Target: purified recombinant OC2 HOX domain (Homo sapiens, UniProt O95948)
Construct: made in house
Sequence (O95948 426-485 limits assumed): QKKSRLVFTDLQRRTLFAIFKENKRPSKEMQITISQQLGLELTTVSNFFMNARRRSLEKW
Assay: Surface plasmon resonance (SPR) binding of compound to immobilized OC2-HOX domain
RECORDED_ENDPOINT: direct binding to OC2

{"columns": ["COMPOUND", "TARGET_DESC", "EXPERIMENTAL_RESULT"],
 "data": [
  ["NC(=O)C1CCCCN1C(=O)NCCc1ccc(O)c(O)c1O (stereo not shown) [Compound 123]", "purified recombinant OC2 HOX domain (Homo sapiens, UniProt O95948)", "directly bind OC2"],
  ["O=C(CNC(=O)Cc1ccc(O)c(O)c1O)NO [Compound 843]", "purified recombinant OC2 HOX domain (Homo sapiens, UniProt O95948)", "directly bind OC2"],
  ["N[C@@H](CO)C(=O)NNCc1ccc(O)c(O)c1O [Compound 122]", "purified recombinant OC2 HOX domain (Homo sapiens, UniProt O95948)", "directly bind OC2"]
]}
